# TARGET UNDER TEST: human CD36 (on HEK 293 or SCC25 cells) (human, UniProt P16671 2-472)
# Sequence (P16671 2-472 limits assumed): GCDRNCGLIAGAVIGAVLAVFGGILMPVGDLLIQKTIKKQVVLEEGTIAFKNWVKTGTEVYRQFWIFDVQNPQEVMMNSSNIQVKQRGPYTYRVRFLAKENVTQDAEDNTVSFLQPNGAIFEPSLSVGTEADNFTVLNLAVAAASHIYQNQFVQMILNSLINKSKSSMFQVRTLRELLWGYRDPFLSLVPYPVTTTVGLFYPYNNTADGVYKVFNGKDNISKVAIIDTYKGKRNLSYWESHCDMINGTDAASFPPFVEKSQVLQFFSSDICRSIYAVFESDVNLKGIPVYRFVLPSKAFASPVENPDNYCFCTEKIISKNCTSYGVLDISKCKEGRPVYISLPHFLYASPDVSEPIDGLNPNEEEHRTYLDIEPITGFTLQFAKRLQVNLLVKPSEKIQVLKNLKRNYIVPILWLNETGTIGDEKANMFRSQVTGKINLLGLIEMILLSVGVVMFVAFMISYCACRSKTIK
# EXPERIMENT DESCRIPTION: cell-based or functional assay
Recorded IC50 of fatty acid uptake inhibition (BODIPY FL C16, HEK hCD36 cells), one value per entry.
TEST READOUT: IC50 of fatty acid uptake inhibition (BODIPY FL C16, HEK hCD36 cells) (pM)

# BINDER, QUANTITY UNIT, QUANTITATIVE RESULT
records = [
    ("29G04 (antibody, human IgG1, V domains shown, Chimeric: mouse variable regions on human IgG1 LALA (L234A/L235A); also called 029G04) VH: QVQLQQSGTELVKPGASVKLSCKASGYTFTSYWMHWVKQRPGQGLEWIGEIDPSDSHTNYNQKFKGKATLTVDKSSSTAYMQLSSLTSEDSAVYYCAPIYYGLDNWGQGTTLTVSS VL: DIVLTQSQKFMSTSVGDRVSVTCKASQNVGTNVAWYQQKPGQSPKALIYSASYRYSGVPDRFTGSGSGTDFTLTISNVQSEDLAEYFCQQYNSYPLTFGAGTKLELK", "pM", 80),
    ("4G04 (antibody, human IgG1, V domains shown, Chimeric: mouse variable regions on human IgG1 LALA (L234A/L235A); also called 04G04; 004G04) VH: QVQLQQPGSELRSPGSSVKLSCKDFDSEVFPIAYMTWVRQKPGHGFEWIGDILPSIGGTIYGEKFEDKATLDADTVSNTAYLELNSLTSEDSAIYYCARDYYGSSYGYFDVWGAGTAVTVSS VL: DIVLTQSQKFMSTSVGDRVSVTCKASQNVGTNVAWYQQKPGQSPKALIYSASYRYSGVPDRFTGSGSGTDFTLTISNVQSEDLAEYFCQQYNSYPYTFGGGTKLEIK", "pM", 483000),
    ("28G04 (antibody, human IgG1, V domains shown, Chimeric: mouse variable regions on human IgG1 LALA (L234A/L235A); also called 028G04) VH: EVQLQQSGPELVKPGASVKISCKTSGYTFTEYTIHWVKQSHGKSLEWIGGIIPNNGGSSHKQNFKDKATLTVDKSSSTAYMELRSLTSEDSAVYYCARAGDYAFDYWGQGTTLTVSS VL: ETTVTQSPASLSMAIGEKVTIRCITSTDIDDDMNWYQQKPGEPPKLLISEGNTLRPGVPSRFSSSGYGTDFVFTIENMLSEDVADYYCLQSGTLPFTFGSGTKLEIK", "pM", 90),
]
